Source listed as patent US6441195B1.

# Test system: Lolium
# TEST_SUMMARY: Pre-emergence test/Greenhouse, Lolium
# Type: in vivo
# CONDITION_DESCRIPTION: 60 g of ai./ha, after three weeks
MEASURED_METRIC: degree of damage to the plants (% damage vs untreated control), Lolium (%)
Numbers only here, please. The scale is %.

The following compounds have reported results that may help.
CSc1nn(C(=O)NS(=O)(=O)c2c(C)cccc2C(=O)OC(C)C)c(=O)n1C [Example 8]; 95
Cc1cccc(C(=O)OC(C)C)c1S(=O)(=O)NC(=O)n1nc(OC(C)C)n(C)c1=O [Example 18]; 80
CCOn1c(CC)nn(C(=O)NS(=O)(=O)c2c(C)cccc2C(=O)OC)c1=O [Example 155]; 95

Okay, now this compound:
Reading of degree of damage to the plants (% damage vs untreated control), Lolium for CCOC(=O)c1scc(C)c1S(=O)(=O)NC(=O)n1nc(OCC)n(C2CC2)c1=O [Example 63] with Lolium: 100

###

# System: Maize
# TEST_SUMMARY: Post-emergence test/greenhouse, Maize
# Format: in vivo
# CONDITION_DESCRIPTION: greenhouse, 30 g of ai./ha, after three weeks
MEASURED_METRIC: degree of damage, Maize

The following molecules have reported results that may help.
COC(=O)c1cccc(C)c1S(=O)(=O)NC(=O)n1nc(SCCF)n(C2CC2)c1=O [Example 151]; 60%
CCSc1nn(C(=O)NS(=O)(=O)c2c(C)cccc2C(=O)OC)c(=O)n1C [Example 141]; 10%
CCc1nn(C(=O)NS(=O)(=O)c2c(C)csc2C(=O)OC)c(=O)n1C [Example 5]; 10%

Okay, now this molecule:
Reported degree of damage, Maize for COC(=O)c1scc(C)c1S(=O)(=O)NC(=O)n1nc(OC)n(C)c1=O [Example 31] was 5%

###

# Test system: Matricaria
# TEST_SUMMARY: Post-emergence test/greenhouse, Matricaria
# Type: in vivo
# CONDITION_DESCRIPTION: greenhouse, 60 g of ai./ha, after three weeks
Examples of compounds with documented degree of damage, Matricaria follow.
Numbers only here, please. The scale is %.

The following compounds have reported results that may help.
COC(=O)c1cccc(C)c1S(=O)(=O)NC(=O)n1nc(OC(C)C)n(C2CC2)c1=O; 100
COC(=O)c1cccc(C)c1S(=O)(=O)NC(=O)n1nc(OC)n(C2CC2)c1=O; 100
CCOn1c(CC)nn(C(=O)NS(=O)(=O)c2c(C)csc2C(=O)OC)c1=O; 95
COCc1nn(C(=O)NS(=O)(=O)c2c(C)csc2C(=O)OC)c(=O)n1C; 80
CCOC(=O)c1scc(C)c1S(=O)(=O)NC(=O)n1nc(OCC)n(C2CC2)c1=O; 95

Reported degree of damage, Matricaria for CCOC(=O)c1scc(C)c1S(=O)(=O)NC(=O)n1nc(OCC)n(C)c1=O was 100

Reported degree of damage, Matricaria for COC(=O)c1cccc(C)c1S(=O)(=O)NC(=O)n1nc(OC)n(C)c1=O was 60

Reported degree of damage, Matricaria for CCOc1nn(C(=O)NS(=O)(=O)c2c(C)cccc2C(=O)OC(C)C)c(=O)n1C was 95

Reported degree of damage, Matricaria for CCCOc1nn(C(=O)NS(=O)(=O)c2c(C)cccc2C(=O)OC)c(=O)n1C1CC1 was 95
